compounds and their reported MEC
Test system: Escherichia coli
run.description: Inhibition of Escherichia coli EC302 TEM-10 assessed as minimum concentration of compound needed to reduce the MIC of aztreonam to 4 ug/ml

State the recorded MEC for this entry: NC(=O)CS[C@H]1Cc2cccc(C(=O)O)c2OB1O
> 10 µg/mL

And for Nc1nnc(S[C@H]2Cc3ccc(OCC(F)F)c(C(=O)O)c3OB2O)s1 ?
> 20 µg/mL

Next entry: O=C(O)c1cccc2c1OB(O)[C@@H](OC1CNC1)C2
> 20 µg/mL

Next up: N=C(N)S[C@H]1Cc2cccc(C(=O)O)c2OB1O
> 20 µg/mL

Repeat with COc1ccc2c(c1C(=O)O)OB(O)[C@@H](CCO)C2
> 20 µg/mL

Try this compound next: O=C(O)c1cccc2c1OB(O)[C@@H](Sc1nnc[nH]1)C2
> 40 µg/mL

Same again, this time with COc1ccc2c(c1C(=O)O)OB(O)C1(CC1)C2
> 20 µg/mL

Try NC(=O)CCS[C@H]1Cc2cccc(C(=O)O)c2OB1O next.
> 20 µg/mL

New cases:
Would you mind telling me what MEC value was observed for Nc1nnc(S[C@H]2Cc3cccc(C(=O)O)c3OB2O)[nH]1 ?
> 20 µg/mL

Now give it for O=C(O)c1c(OCCF)ccc2c1OB(O)[C@@H](Sc1nncs1)C2 too.
20 µg/mL

Repeat with O=C(O)c1cccc2c1OB(O)[C@@H](Sc1cccnc1)C2
> 20 µg/mL

---

System: Acinetobacter baumannii
run.description: Inhibition of Acinetobacter baumannii AB1053 OXA-72 assessed as minimum concentration of compound needed to reduce the MIC of meropenem to 8 ug/ml
measurement.name: MEC

These recorded examples may help you get a feel for the data.
Bench note: what MEC did CSCC(=O)N[C@H]1Cc2ccc(F)c(C(=O)O)c2OB1O show?
> 20 µg/mL

Also COc1ccc2c(c1C(=O)O)OB(O)C1(CC1)C2 ?
> 20 µg/mL

Shift focus to the following entry.
May I ask what MEC has been recorded for C[C@@H]1Cc2cccc(C(=O)O)c2OB1O ?
> 20 µg/mL

---

Recorded MEC for the following compounds
System: Klebsiella pneumoniae
run.description: Inhibition of Klebsiella pneumoniae KP1081 NDM-1 assessed as minimum concentration of compound required to reduce the MIC of biapenem to 1 ug/ml

Answered cases to consult:
Looking for the measured MEC of NC(=O)[C@@H]1CC[C@@H]2CN1C(=O)N2OS(=O)(=O)O [AVIBACTAM] , can you help?
> 20 µg/mL

Also, COc1ccc2c(c1C(=O)O)OB(O)C=C2 please.
> 20 µg/mL

--- query ---
Name the reported MEC value associated with the compound Nc1nnc(S[C@H]2Cc3cccc(C(=O)O)c3OB2O)[nH]1
< 0.3 µg/mL

---

target.desc: Beta-lactamase (Klebsiella pneumoniae)
run.description: Inhibition of Klebsiella pneumoniae KP1004 KPC-2 assessed as minimum concentration of compound needed to reduce the MIC of aztreonam to 4 ug/ml
measurement.name: MEC (µg/mL)

Report MEC for O=C(O)c1cccc2c1OB(O)CC2 please.
0.6

And for CSCC(=O)N[C@H]1Cc2ccc(SC)c(C(=O)O)c2OB1O ?
0.6

I: O=C(O)c1nccc2c1OB(O)[C@H]1C[C@@H]21
II: COc1ccc2c(c1C(=O)O)OB(O)C1CC21 (stereo not given)
Given I and given II , which shows the smaller recorded MEC? // output: label of the selected item
II
(II: 0.16 µg/mL, I: 1.25 µg/mL)
